// data source = patent US8008260B2

Biological target: TLR2/TLR6 heterodimer (Homo sapiens, UniProt O60603+Q9Y2C9)
Construct: expressed in transfected cells; host or cells: 293 cells
Sequence (O60603 21-784): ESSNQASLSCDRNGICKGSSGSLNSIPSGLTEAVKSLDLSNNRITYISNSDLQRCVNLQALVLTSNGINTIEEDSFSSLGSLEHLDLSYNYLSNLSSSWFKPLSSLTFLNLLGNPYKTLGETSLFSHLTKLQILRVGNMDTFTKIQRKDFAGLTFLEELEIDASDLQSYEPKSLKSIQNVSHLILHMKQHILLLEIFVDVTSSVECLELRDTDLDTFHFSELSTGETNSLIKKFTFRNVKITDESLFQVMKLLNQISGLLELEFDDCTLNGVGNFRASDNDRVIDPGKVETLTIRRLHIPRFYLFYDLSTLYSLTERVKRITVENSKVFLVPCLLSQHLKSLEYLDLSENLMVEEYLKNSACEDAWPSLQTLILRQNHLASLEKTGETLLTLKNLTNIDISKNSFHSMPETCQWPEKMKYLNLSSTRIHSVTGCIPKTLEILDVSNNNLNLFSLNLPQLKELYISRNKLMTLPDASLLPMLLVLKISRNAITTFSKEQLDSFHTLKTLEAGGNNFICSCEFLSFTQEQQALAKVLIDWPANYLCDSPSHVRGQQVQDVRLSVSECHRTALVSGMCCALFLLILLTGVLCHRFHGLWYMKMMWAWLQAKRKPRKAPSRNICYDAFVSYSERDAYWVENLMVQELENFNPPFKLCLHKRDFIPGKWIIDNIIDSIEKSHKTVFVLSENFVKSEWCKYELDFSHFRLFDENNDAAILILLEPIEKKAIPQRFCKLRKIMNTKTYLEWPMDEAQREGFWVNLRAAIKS
Sequence (Q9Y2C9 32-796): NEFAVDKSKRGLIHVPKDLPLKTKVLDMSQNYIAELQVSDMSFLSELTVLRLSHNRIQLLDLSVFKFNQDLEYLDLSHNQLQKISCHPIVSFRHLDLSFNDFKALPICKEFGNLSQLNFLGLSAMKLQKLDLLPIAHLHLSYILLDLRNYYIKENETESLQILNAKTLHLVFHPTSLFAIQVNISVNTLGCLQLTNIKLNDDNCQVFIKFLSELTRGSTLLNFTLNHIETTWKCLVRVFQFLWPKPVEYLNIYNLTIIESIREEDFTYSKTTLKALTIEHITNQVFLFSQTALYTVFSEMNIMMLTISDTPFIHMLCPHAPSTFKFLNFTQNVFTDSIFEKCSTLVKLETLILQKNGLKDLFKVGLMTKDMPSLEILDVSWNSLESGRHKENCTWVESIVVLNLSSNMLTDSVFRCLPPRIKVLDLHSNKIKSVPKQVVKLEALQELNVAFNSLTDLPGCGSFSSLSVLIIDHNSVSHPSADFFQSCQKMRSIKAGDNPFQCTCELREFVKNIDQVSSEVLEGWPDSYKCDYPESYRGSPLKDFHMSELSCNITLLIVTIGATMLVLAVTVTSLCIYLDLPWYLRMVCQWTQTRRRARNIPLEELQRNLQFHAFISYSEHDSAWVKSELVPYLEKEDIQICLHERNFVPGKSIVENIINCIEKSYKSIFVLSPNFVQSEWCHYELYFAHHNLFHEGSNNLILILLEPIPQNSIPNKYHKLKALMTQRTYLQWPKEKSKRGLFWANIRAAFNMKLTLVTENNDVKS
Assay: NF-κB-dependent reporter activity in 293 cells expressing the TLR2/TLR6 heterodimer
Assay type: cell-based
Design: scale not given here
Conditions: in vitro activity, 293 cells expressing TLR2/TLR6
Peptide text beside a SMILES is read from it. * marks the point of attachment. Propyl(2R-PamO,3-PamO) = CCCCCCCCCCCCCCCC(=O)OC[C@H](C*)OC(=O)CCCCCCCCCCCCCCC; X1 = CCCCCCCCCCCCCCCC(=O)OCC(C*)OC(=O)CCCCCCCCCCCCCCC
Readout name: NF-κB activation

Compound: CCCCCCCCCCCCCCCC(=O)OC[C@H](CSC[C@H](N)C(=O)NCC(=O)N[C@@H](CCC(=O)O)C(=O)N[C@@H](CCC(=O)O)C(=O)N[C@@H](CO)C(=O)N[C@@H](CC(N)=O)C(=O)O)OC(=O)CCCCCCCCCCCCCCC [CBLB615] (H-C(Propyl(2R-PamO,3-PamO))GEESN-OH)
Measured: 200
//
Compound: CCCCCCCCCCCCCCCC(=O)OCC(CSC[C@H](N)C(=O)N[C@@H](CO)C(=O)N[C@@H](CCC(N)=O)C(=O)N[C@@H](CCSC)C(=O)N[C@@H](Cc1c[nH]cn1)C(=O)N[C@@H](Cc1c[nH]cn1)C(=O)O)OC(=O)CCCCCCCCCCCCCCC (stereo partly shown) [CBLB605] (H-C(X1)SQMHH-OH)
Measured: 2
//
Compound: CCCCCCCCCCCCCCCC(=O)OC[C@H](CSC[C@H](N)C(=O)N[C@@H](CO)C(=O)N[C@@H](CCCCN)C(=O)N[C@@H](CCCCN)C(=O)N[C@@H](CCCCN)C(=O)N[C@@H](CCCCN)C(=O)O)OC(=O)CCCCCCCCCCCCCCC [CBLB601, R-PAM2C-SKKKK] (H-C(Propyl(2R-PamO,3-PamO))SKKKK-OH)
Measured: 100
//
Compound: CCCCCCCCCCCCCCCC(=O)OC[C@H](CSC[C@H](N)C(=O)NCC(=O)N[C@@H](CCC(=O)O)C(=O)N[C@@H](CCC(=O)O)C(=O)N[C@@H](CC(=O)O)C(=O)N[C@@H](CC(=O)O)C(=O)O)OC(=O)CCCCCCCCCCCCCCC [CBLB617] (H-C(Propyl(2R-PamO,3-PamO))GEEDD-OH)
Measured: 100

----------
Test: Solubility of the lipopeptides
Peptide text beside a SMILES is read from it. * marks the point of attachment. X1 = CCCCCCCCCCCCCCCC(=O)OCC(C*)OC(=O)CCCCCCCCCCCCCCC

Molecule: CCCCCCCCCCCCCCCC(=O)OCC(CSC[C@H](N)C(=O)N[C@@H](CO)C(=O)N[C@@H](CCC(N)=O)C(=O)N[C@@H](CCSC)C(=O)N[C@@H](Cc1c[nH]cn1)C(=O)N[C@@H](Cc1c[nH]cn1)C(=O)O)OC(=O)CCCCCCCCCCCCCCC (stereo partly drawn) [CBLB605] (H-C(X1)SQMHH-OH)
Solubility: Poor

----------
Target: TLR2/TLR6 heterodimer (Homo sapiens, UniProt O60603+Q9Y2C9)
Construct: expressed in transfected cells; host or cells: 293 cells
Assay: NF-κB-dependent reporter activity in 293 cells expressing the TLR2/TLR6 heterodimer
Format: cell-based
Design: scale not given here
Conditions: in vitro activity, 293 cells expressing TLR2/TLR6
Peptide text beside a SMILES is read from it. * marks the point of attachment. Propyl(2R-PamO,3-PamO) = CCCCCCCCCCCCCCCC(=O)OC[C@H](C*)OC(=O)CCCCCCCCCCCCCCC; X1 = CCCCCCCCCCCCCCCC(=O)OCC(C*)OC(=O)CCCCCCCCCCCCCCC
Readout name: NF-κB activation

Compound: CCCCCCCCCCCCCCCC(=O)OC[C@H](CSC[C@H](N)C(=O)N[C@@H](CCC(N)=O)C(=O)NCC(=O)N[C@@H](CCC(=O)O)C(=O)N[C@@H](CCC(=O)O)C(=O)N[C@@H](CO)C(=O)N[C@@H](CC(N)=O)C(=O)N[C@@H](CC(=O)O)C(=O)N[C@@H](CCCCN)C(=O)O)OC(=O)CCCCCCCCCCCCCCC [CBLB614] (H-C(Propyl(2R-PamO,3-PamO))QGEESNDK-OH)
System: TLR2/TLR6 heterodimer (Homo sapiens, UniProt O60603+Q9Y2C9)
Readout name: NF-κB activation
Measured: 200
--
Compound: CCCCCCCCCCCCCCCC(=O)OCC(CSC[C@H](N)C(=O)NCC(=O)N[C@@H](CC(=O)O)C(=O)N1CCC[C@H]1C(=O)N[C@@H](CCCCN)C(=O)N[C@@H](Cc1c[nH]cn1)C(=O)N1CCC[C@H]1C(=O)N[C@@H](CCCCN)C(=O)N[C@@H](CO)C(=O)N[C@@H](Cc1ccccc1)C(=O)N[C@H](C(=O)NCC(=O)N[C@@H](Cc1c[nH]c2ccccc12)C(=O)N[C@H](C(=O)N[C@@H](C)C(=O)O)C(C)C)[C@@H](C)O)OC(=O)CCCCCCCCCCCCCCC (stereo partly drawn) [CBLB607] (H-C(X1)GDPKHPKSFTGWVA-OH)
System: TLR2/TLR6 heterodimer (Homo sapiens, UniProt O60603+Q9Y2C9)
Readout name: NF-κB activation
Measured: 2
--
Compound: CCCCCCCCCCCCCCCC(=O)OCC(CSC[C@H](N)C(=O)NCC(=O)N[C@@H](CCC(N)=O)C(=O)N[C@@H](Cc1c[nH]cn1)C(=O)N[C@@H](Cc1c[nH]cn1)C(=O)N[C@@H](Cc1c[nH]cn1)C(=O)O)OC(=O)CCCCCCCCCCCCCCC (stereo partly drawn) [CBLB602] (H-C(X1)GQHHH-OH)
System: TLR2/TLR6 heterodimer (Homo sapiens, UniProt O60603+Q9Y2C9)
Readout name: NF-κB activation
Measured: 0

----------
Known NF-κB activation of a selection of molecules
Biological target: TLR2/TLR6 heterodimer (Homo sapiens, UniProt O60603+Q9Y2C9)
Construct: expressed in transfected cells; host or cells: 293 cells
Assay: NF-κB-dependent reporter activity in 293 cells expressing the TLR2/TLR6 heterodimer
Assay type: cell-based
Parameters: scale not given here
Conditions: in vitro activity, 293 cells expressing TLR2/TLR6
Peptide text beside a SMILES is read from it. * marks the point of attachment. Propyl(2R-PamO,3-PamO) = CCCCCCCCCCCCCCCC(=O)OC[C@H](C*)OC(=O)CCCCCCCCCCCCCCC; X1 = CCCCCCCCCCCCCCCC(=O)OCC(C*)OC(=O)CCCCCCCCCCCCCCC
Readout name: NF-κB activation

Molecule: CCCCCCCCCCCCCCCC(=O)OCC(CSC[C@H](N)C(=O)N[C@@H](Cc1ccccc1)C(=O)N[C@@H](CCC(=O)O)C(=O)N1CCC[C@H]1C(=O)N1CCC[C@H]1C(=O)N1CCC[C@H]1C(=O)N[C@@H](C)C(=O)N[C@H](C(=O)N[C@H](C(=O)N[C@H](C(=O)N[C@@H](CCCCN)C(=O)N[C@@H](CO)C(=O)N[C@@H](CCCCN)C(=O)O)[C@@H](C)O)[C@@H](C)O)[C@@H](C)O)OC(=O)CCCCCCCCCCCCCCC (stereo partly drawn) [CBLB608] (H-C(X1)FEPPPATTTKSK-OH)
Readout name: NF-κB activation
Measured: 2

Molecule: CCCCCCCCCCCCCCCC(=O)OC[C@H](CSC[C@H](N)C(=O)N[C@H](C(=O)N[C@@H](CCC(N)=O)C(=O)NCC(=O)N[C@@H](CCC(=O)O)C(=O)N[C@@H](CCC(=O)O)C(=O)N[C@@H](CO)C(=O)N[C@@H](CC(N)=O)C(=O)N[C@@H](CC(=O)O)C(=O)N[C@@H](CCCCN)C(=O)O)C(C)C)OC(=O)CCCCCCCCCCCCCCC [CBLB612] (H-C(Propyl(2R-PamO,3-PamO))VQGEESNDK-OH)
Readout name: NF-κB activation
Measured: 200

Molecule: CCCCCCCCCCCCCCCC(=O)OCC(CSC[C@H](N)C(=O)NCC(=O)N[C@@H](CCC(N)=O)C(=O)N[C@@H](Cc1c[nH]cn1)C(=O)N[C@@H](Cc1c[nH]cn1)C(=O)N[C@@H](CCSC)C(=O)O)OC(=O)CCCCCCCCCCCCCCC (stereo partly drawn) [CBLB603] (H-C(X1)GQHHM-OH)
Readout name: NF-κB activation
Measured: 0

----------
Experiment: Solubility of the lipopeptides
Peptide text beside a SMILES is read from it. * marks the point of attachment. Propyl(2R-PamO,3-PamO) = CCCCCCCCCCCCCCCC(=O)OC[C@H](C*)OC(=O)CCCCCCCCCCCCCCC; X1 = CCCCCCCCCCCCCCCC(=O)OCC(C*)OC(=O)CCCCCCCCCCCCCCC
Readout name: Solubility

Molecule: CCCCCCCCCCCCCCCC(=O)OCC(CSC[C@H](N)C(=O)NCC(=O)N[C@@H](CC(=O)O)C(=O)N1CCC[C@H]1C(=O)N[C@@H](CCCCN)C(=O)N[C@@H](Cc1c[nH]cn1)C(=O)N1CCC[C@H]1C(=O)N[C@@H](CCCCN)C(=O)N[C@@H](CO)C(=O)N[C@@H](Cc1ccccc1)C(=O)N[C@H](C(=O)NCC(=O)N[C@@H](Cc1c[nH]c2ccccc12)C(=O)N[C@H](C(=O)N[C@@H](C)C(=O)O)C(C)C)[C@@H](C)O)OC(=O)CCCCCCCCCCCCCCC (stereo partly shown) [CBLB607] (H-C(X1)GDPKHPKSFTGWVA-OH)
Readout name: Solubility
Measured: Poor

Molecule: CCCCCCCCCCCCCCCC(=O)OC[C@H](CSC[C@H](N)C(=O)N[C@@H](CCC(N)=O)C(=O)NCC(=O)N[C@@H](CCC(=O)O)C(=O)N[C@@H](CCC(=O)O)C(=O)N[C@@H](CO)C(=O)N[C@@H](CC(N)=O)C(=O)N[C@@H](CC(=O)O)C(=O)N[C@@H](CCCCN)C(=O)O)OC(=O)CCCCCCCCCCCCCCC [CBLB614] (H-C(Propyl(2R-PamO,3-PamO))QGEESNDK-OH)
Readout name: Solubility
Measured: Soluble

Molecule: CCCCCCCCCCCCCCCC(=O)OC[C@H](CSC[C@H](N)C(=O)NCC(=O)N[C@@H](CCC(=O)O)C(=O)N[C@@H](CCC(=O)O)C(=O)N[C@@H](CC(=O)O)C(=O)N[C@@H](CC(=O)O)C(=O)O)OC(=O)CCCCCCCCCCCCCCC [CBLB617] (H-C(Propyl(2R-PamO,3-PamO))GEEDD-OH)
Readout name: Solubility
Measured: Soluble

Molecule: CCCCCCCCCCCCCCCC(=O)OC[C@H](CSC[C@H](N)C(=O)NCC(=O)N[C@@H](CC(=O)O)C(=O)N1CCC[C@H]1C(=O)N[C@@H](CCCCN)C(=O)N[C@@H](Cc1c[nH]cn1)C(=O)N1CCC[C@H]1C(=O)N[C@@H](CCCCN)C(=O)N[C@@H](CO)C(=O)N[C@@H](Cc1ccccc1)C(=O)O)OC(=O)CCCCCCCCCCCCCCC [CBLB606] (H-C(Propyl(2R-PamO,3-PamO))GDPKHPKSF-OH; C-terminus assumed)
Readout name: Solubility
Measured: Poor

Molecule: CCCCCCCCCCCCCCCC(=O)OCC(CSC[C@H](N)C(=O)NCC(=O)N[C@@H](CO)C(=O)N[C@@H](Cc1c[nH]cn1)C(=O)N[C@@H](Cc1c[nH]cn1)C(=O)N[C@@H](CCSC)C(=O)O)OC(=O)CCCCCCCCCCCCCCC (stereo partly shown) [CBLB604] (H-C(X1)GSHHM-OH)
Readout name: Solubility
Measured: Poor

Molecule: CCCCCCCCCCCCCCCC(=O)OC[C@H](CSC[C@H](N)C(=O)NCC(=O)N[C@@H](CCC(=O)O)C(=O)N[C@H](C(=O)N[C@@H](CC(=O)O)C(=O)N[C@@H](CCCCN)C(=O)O)[C@@H](C)O)OC(=O)CCCCCCCCCCCCCCC [CBLB613] (H-C(Propyl(2R-PamO,3-PamO))GETDK-OH)
Readout name: Solubility
Measured: Soluble
